All values here come from the supplement of paper PMC7125110.

B1: glmS ribozyme (parent)
chain: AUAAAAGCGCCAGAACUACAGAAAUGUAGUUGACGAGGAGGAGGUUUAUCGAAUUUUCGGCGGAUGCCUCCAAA

Variants of: B1
Test: KM; higher = weaker cofactor use; RNA array
Details: with glucosamine-6-phosphate
endpoint: log10(KM) (log10 of the value in µM)

[
  {
    "variant identifier": "G40A G66C",
    "log10(KM)": 3.35
  },
  {
    "variant identifier": "A39C A52G",
    "log10(KM)": 3.45
  },
  {
    "variant identifier": "A15U U47A",
    "log10(KM)": 3.29
  },
  {
    "variant identifier": "A53U C58A",
    "log10(KM)": 3.48
  },
  {
    "variant identifier": "G40U C70U",
    "log10(KM)": 3.34
  },
  {
    "variant identifier": "A64U U69C",
    "log10(KM)": 3.02
  },
  {
    "variant identifier": "U47A U65C",
    "log10(KM)": 3.38
  },
  {
    "variant identifier": "U45A C58U",
    "log10(KM)": 3.62
  },
  {
    "variant identifier": "A39G C58G",
    "log10(KM)": 3.52
  },
  {
    "variant identifier": "C58U C70U",
    "log10(KM)": 3.67
  },
  {
    "variant identifier": "U54C U65G",
    "log10(KM)": 3.73
  },
  {
    "variant identifier": "G40U U46G",
    "log10(KM)": 3.27
  },
  {
    "variant identifier": "U46C C67A",
    "log10(KM)": 3.14
  },
  {
    "variant identifier": "A12C G29U U47G",
    "log10(KM)": 3.63
  },
  {
    "variant identifier": "A14U U46A",
    "log10(KM)": 3.30
  },
  {
    "variant identifier": "U65G C67G",
    "log10(KM)": 3.21
  },
  {
    "variant identifier": "U30A G40U",
    "log10(KM)": 3.33
  },
  {
    "variant identifier": "U45C C71A",
    "log10(KM)": 3.67
  },
  {
    "variant identifier": "U56A C71G",
    "log10(KM)": 3.00
  },
  {
    "variant identifier": "U47C C50A",
    "log10(KM)": 3.49
  },
  {
    "variant identifier": "G13C A52G",
    "log10(KM)": 3.56
  },
  {
    "variant identifier": "U46C C58U",
    "log10(KM)": 3.15
  },
  {
    "variant identifier": "A23C C70A",
    "log10(KM)": 2.14
  },
  {
    "variant identifier": "U45G U54A",
    "log10(KM)": 3.32
  },
  {
    "variant identifier": "A42G C58A",
    "log10(KM)": 3.39
  },
  {
    "variant identifier": "G29C U46C",
    "log10(KM)": 2.73
  },
  {
    "variant identifier": "G41U U46C",
    "log10(KM)": 2.83
  },
  {
    "variant identifier": "G13A C71U",
    "log10(KM)": 3.67
  },
  {
    "variant identifier": "G40C A52G",
    "log10(KM)": 3.48
  },
  {
    "variant identifier": "U45C C67A",
    "log10(KM)": 3.40
  },
  {
    "variant identifier": "U65A G66A",
    "log10(KM)": 3.21
  },
  {
    "variant identifier": "A15G C61U",
    "log10(KM)": 2.80
  },
  {
    "variant identifier": "A14G U57G",
    "log10(KM)": 3.38
  },
  {
    "variant identifier": "A39U C58G",
    "log10(KM)": 3.97
  },
  {
    "variant identifier": "A15C C16U",
    "log10(KM)": 3.51
  },
  {
    "variant identifier": "C16U U65C",
    "log10(KM)": 3.36
  },
  {
    "variant identifier": "G66A C71G",
    "log10(KM)": 3.17
  },
  {
    "variant identifier": "A33U C71U",
    "log10(KM)": 3.45
  },
  {
    "variant identifier": "C11A U30A",
    "log10(KM)": 3.29
  },
  {
    "variant identifier": "C16A U46G",
    "log10(KM)": 3.24
  },
  {
    "variant identifier": "U30C C71A",
    "log10(KM)": 3.11
  },
  {
    "variant identifier": "A6U C16G",
    "log10(KM)": 3.52
  },
  {
    "variant identifier": "A53U C58U",
    "log10(KM)": 3.42
  },
  {
    "variant identifier": "U31A G66U",
    "log10(KM)": 3.14
  },
  {
    "variant identifier": "A12C U30A",
    "log10(KM)": 3.85
  },
  {
    "variant identifier": "A53U U65C",
    "log10(KM)": 3.14
  },
  {
    "variant identifier": "A39U C67A",
    "log10(KM)": 3.37
  },
  {
    "variant identifier": "U55G A64C",
    "log10(KM)": 3.08
  },
  {
    "variant identifier": "A15C U45C",
    "log10(KM)": 3.74
  },
  {
    "variant identifier": "A42C U69G",
    "log10(KM)": 2.11
  },
  {
    "variant identifier": "A6U U30C U31G",
    "log10(KM)": 3.86
  },
  {
    "variant identifier": "G13C A42G",
    "log10(KM)": 3.61
  },
  {
    "variant identifier": "A48C U55A",
    "log10(KM)": 3.32
  },
  {
    "variant identifier": "C11A A15G C16A G29U",
    "log10(KM)": 3.34
  },
  {
    "variant identifier": "G13A A52G",
    "log10(KM)": 3.02
  },
  {
    "variant identifier": "A12U G59A",
    "log10(KM)": 3.50
  },
  {
    "variant identifier": "A15U C67A",
    "log10(KM)": 3.23
  },
  {
    "variant identifier": "G13U C67U",
    "log10(KM)": 3.23
  },
  {
    "variant identifier": "A39C G66U",
    "log10(KM)": 3.49
  },
  {
    "variant identifier": "A14G C68A",
    "log10(KM)": 2.40
  },
  {
    "variant identifier": "G40A A42G",
    "log10(KM)": 3.28
  },
  {
    "variant identifier": "G29A U31A",
    "log10(KM)": 3.05
  },
  {
    "variant identifier": "A15G G41C",
    "log10(KM)": 3.34
  },
  {
    "variant identifier": "G29A A64U",
    "log10(KM)": 2.77
  },
  {
    "variant identifier": "U31C C71A",
    "log10(KM)": 3.17
  },
  {
    "variant identifier": "G37A A42G",
    "log10(KM)": 3.56
  },
  {
    "variant identifier": "A15G U46C",
    "log10(KM)": 3.16
  },
  {
    "variant identifier": "A52U U56G",
    "log10(KM)": 3.71
  },
  {
    "variant identifier": "G32C C71G",
    "log10(KM)": 1.94
  },
  {
    "variant identifier": "U31G A52G",
    "log10(KM)": 3.45
  },
  {
    "variant identifier": "U31C U55C",
    "log10(KM)": 3.57
  },
  {
    "variant identifier": "A12U U46A",
    "log10(KM)": 3.24
  },
  {
    "variant identifier": "A52G U56A",
    "log10(KM)": 3.65
  },
  {
    "variant identifier": "A14G A42G A53G",
    "log10(KM)": 2.89
  },
  {
    "variant identifier": "A6U A15U",
    "log10(KM)": 3.10
  },
  {
    "variant identifier": "A42G A53C",
    "log10(KM)": 3.19
  },
  {
    "variant identifier": "G32U C71G",
    "log10(KM)": 2.87
  },
  {
    "variant identifier": "U31G U56G C67U",
    "log10(KM)": 3.46
  },
  {
    "variant identifier": "A12U G37A",
    "log10(KM)": 3.67
  },
  {
    "variant identifier": "C67A",
    "log10(KM)": 3.24
  },
  {
    "variant identifier": "G41A A64G",
    "log10(KM)": 3.77
  },
  {
    "variant identifier": "G37A U65A",
    "log10(KM)": 3.64
  },
  {
    "variant identifier": "G32C A53U",
    "log10(KM)": 3.88
  },
  {
    "variant identifier": "G29C G40C",
    "log10(KM)": 3.01
  },
  {
    "variant identifier": "U56A A64U",
    "log10(KM)": 3.10
  },
  {
    "variant identifier": "A14G U65C",
    "log10(KM)": 3.05
  },
  {
    "variant identifier": "U46C A53U",
    "log10(KM)": 3.21
  },
  {
    "variant identifier": "G37A A48C",
    "log10(KM)": 3.10
  },
  {
    "variant identifier": "U46G U65G",
    "log10(KM)": 3.33
  },
  {
    "variant identifier": "A53C U56G",
    "log10(KM)": 3.26
  },
  {
    "variant identifier": "U31C C67U",
    "log10(KM)": 3.11
  }
]
